molecular target: CDK-2 (Homo sapiens, UniProt P24941); test: Fluorescence polarization displacement assay (inhibitory effectiveness toward CDK-2); assay type: binding; settings: IC50
pIC50: −log10 of the molar value.
Readings of pIC50 for the listed compounds
Assay Endpoint: pIC50

>  <Compound>
COC(=O)[C@H](Cc1ccc(OC)cc1)NC(=O)c1cc(C(=O)O)c2cc(-c3cccc(C(F)(F)F)c3)ccc2n1 [Compound 162]

>  <Assay Endpoint>
pIC50

>  <Experimental Result>
< 4.40

$$$$
>  <Compound>
COC(=O)[C@H](Cc1ccc(O)cc1)NC(=O)c1cc(C(=O)O)c2cc(-c3ccccc3)ccc2n1 [Compound 73]

>  <Assay Endpoint>
pIC50

>  <Experimental Result>
> 6.00

$$$$
>  <Compound>
COC(=O)[C@H](Cc1ccc(F)cc1)NC(=O)c1cc(C(=O)O)c2cc(-c3cccc(C(F)(F)F)c3)ccc2n1 [Compound 109]

>  <Assay Endpoint>
pIC50

>  <Experimental Result>
4.40 to 6.00

$$$$
>  <Compound>
COC(=O)[C@@H](Cc1ccc(O)cc1)NC(=O)c1cc(C(=O)O)c2cc(-c3cccc(C(F)(F)F)c3)ccc2n1 [Compound 169]

>  <Assay Endpoint>
pIC50

>  <Experimental Result>
< 4.40

$$$$
